# Tested on: CXCR3B (Homo sapiens, UniProt P49682)
# Construct: expressed in transfected cells; host or cells: U87 cells
# Sequence (P49682 1-415 isoform P49682-2): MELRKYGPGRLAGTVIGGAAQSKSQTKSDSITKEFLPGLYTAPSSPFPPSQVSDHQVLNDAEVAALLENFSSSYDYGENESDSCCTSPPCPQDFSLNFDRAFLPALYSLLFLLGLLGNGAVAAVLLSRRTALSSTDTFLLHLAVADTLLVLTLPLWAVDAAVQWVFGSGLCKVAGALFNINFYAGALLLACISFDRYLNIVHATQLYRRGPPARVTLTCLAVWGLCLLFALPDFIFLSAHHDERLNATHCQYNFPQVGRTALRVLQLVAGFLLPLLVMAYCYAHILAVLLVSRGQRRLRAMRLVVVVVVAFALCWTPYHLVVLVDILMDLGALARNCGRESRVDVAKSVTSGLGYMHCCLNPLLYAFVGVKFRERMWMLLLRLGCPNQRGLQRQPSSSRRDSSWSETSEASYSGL
# Experimental protocol: Figure S2a opioid peptide screen on chemokine receptors
# Format: cell-based
# Parameters: dose or concentration left out as unconfirmed
# Protocol conditions: replicate 1, read-out: CXCR3B activity, ctrl+ = 100
// activation lookup, one value per entry
Measured property: activation (%)

{"Structure": "CC[C@H](C)[C@H](NC(=O)[C@H](CCCNC(=N)N)NC(=O)[C@H](CCCNC(=N)N)NC(=O)[C@H](CC(C)C)NC(=O)[C@H](Cc1ccccc1)NC(=O)CNC(=O)CNC(=O)[C@@H](N)Cc1ccc(O)cc1)C(=O)N[C@@H](CCCNC(=N)N)C(=O)N1CCC[C@H]1C(=O)N[C@@H](CCCCN)C(=O)N[C@@H](CC(C)C)C(=O)N[C@@H](CCCCN)C(=O)N[C@@H](Cc1c[nH]c2ccccc12)C(=O)N[C@@H](CC(=O)O)C(=O)N[C@@H](CC(N)=O)C(=O)N[C@@H](CCC(N)=O)C(=O)O", "Unit": "%", "Value observed": -2.77}
{"Structure": "CC[C@H](C)[C@H](NC(=O)[C@H](CCCNC(=N)N)NC(=O)[C@H](CCCNC(=N)N)NC(=O)[C@H](CC(C)C)NC(=O)[C@H](Cc1ccccc1)NC(=O)CNC(=O)CN)C(=O)N[C@@H](CCCNC(=N)N)C(=O)N1CCC[C@H]1C(=O)N[C@@H](CCCCN)C(=O)N[C@@H](CC(C)C)C(=O)N[C@@H](CCCCN)C(=O)N[C@@H](Cc1c[nH]c2ccccc12)C(=O)N[C@@H](CC(=O)O)C(=O)N[C@@H](CC(N)=O)C(=O)N[C@@H](CCC(N)=O)C(=O)O", "Unit": "%", "Value observed": -1.19}
